targetUnderTest: SRSF1 RRM1 (YS or WT not stated) (human, UniProt Q07955 1-97)
Sequence (Q07955 1-97): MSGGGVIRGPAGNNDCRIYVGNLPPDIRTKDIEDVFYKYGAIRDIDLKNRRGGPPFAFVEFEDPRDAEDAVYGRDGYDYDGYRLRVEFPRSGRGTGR
measurementDescription: NMR; NMR buffer: 50 mM L-Glu, 50 mM L-Arg, 0.05% beta-mercaptoethanol, 20 mM Na2HPO4 pH 7 (RRM1+2: plus 150 mM KCl, 1.5 mM MgCl2, 0.2 mM EDTA); NMR and ITC at 40 C
details: protein: recombinant; tags: N-terminal GB1-6xHis
reportedProperty: binding result

So for UUUAGA (ssRNA) [SMN2 exon7 ESE1 counterpart] , the logged binding result turned out to be no binding

binding result reported for this binder AACGAA (ssRNA) [AACGAA RNA] : binds

Kindly note the recorded binding result for GGGGGG (ssRNA) [polyG (NMR, length not stated)] , which is no binding

Looking up CCCCCC (ssRNA) [polyC (NMR, length not stated)] , I found its binding result recorded as binds

The measured binding result associated with UUUUUU (ssRNA) [polyU (NMR, length not stated)] reads no binding

Next:
binder UUCAGA (ssRNA) [SMN1 exon7 ESE1] , binding result observed: binds

What the record says about AAAAAA (ssRNA) [polyA (NMR, length not stated)] : binding result is no binding

Origin of measurements: paper PMC7813835
